details: human gut metagenome, 24 h, 2 µM; further: call rule not given here
measure name: Bacterial Biotransformation

* C[C@]12CCC(=O)C=C1[C@@H]1C[C@@H]1[C@H]1[C@@H]3[C@@H]4C[C@@H]4[C@@]4(CCC(=O)O4)[C@@]3(C)CC[C@@H]12 | Compound metabolized
* CN1CCC(OC(c2ccccc2)c2ccccc2)CC1 | Compound metabolized
* CNNCc1ccc(C(=O)NC(C)C)cc1 | Compound NOT metabolized
* COc1cc(NC(C)CCCN)c2ncccc2c1.O=P(O)(O)O.O=P(O)(O)O (stereo not drawn) [PRIMAQUINE PHOSPHATE] | Compound metabolized
* N=C(N)NC(=O)Cc1c(Cl)cccc1Cl | Compound NOT metabolized

Q: Any idea what its Bacterial Biotransformation is? The compound is CCN(C(C)=O)c1cccc(-c2ccnc3c(C#N)cnn23)c1
Result: Compound metabolized

Q: Any idea what its Bacterial Biotransformation is? The compound is CC(C)(C)NCC(O)COc1cccc2c1CC(O)C(O)C2 (stereo not drawn)
Result: Compound metabolized

Q: Any idea what its Bacterial Biotransformation is? The compound is CC(C)(C)NC[C@H](O)COc1nsnc1N1CCOCC1.O=C(O)/C=C\C(=O)O [TIMOLOL MALEATE]
Result: Compound NOT metabolized

Q: Any idea what its Bacterial Biotransformation is? The compound is CC[C@@]1(O)C(=O)OCc2c1cc1n(c2=O)Cc2cc3c(CN(C)C)c(O)ccc3nc2-1
Result: Compound NOT metabolized

Q: Any idea what its Bacterial Biotransformation is? The compound is CCN(CC)CCNC(=O)c1ccc(NC(C)=O)cc1 [ACECAINIDE]
Result: Compound metabolized

Q: Any idea what its Bacterial Biotransformation is? The compound is O=C1N=C([O-])NC1(c1ccccc1)c1ccccc1.[Na+] [PHENYTOIN SODIUM]
Result: Compound metabolized

Q: Any idea what its Bacterial Biotransformation is? The compound is Br.COc1ccc2c(c1)[C@]13CCCC[C@@H]1[C@H](C2)N(C)CC3.O [DEXTROMETHORPHAN HYDROBROMIDE]
Result: Compound metabolized

Q: Any idea what its Bacterial Biotransformation is? The compound is CN1[C@@H]2CC[C@H]1C[C@@H](OC(=O)[C@H](CO)c1ccccc1)C2
Result: Compound metabolized

Q: Any idea what its Bacterial Biotransformation is? The compound is CCN1CCCC1CNC(=O)c1cc(S(=O)(=O)CC)c(N)cc1OC (stereo not drawn) [AMISULPRIDE]
Result: Compound metabolized

Q: Any idea what its Bacterial Biotransformation is? The compound is COC(=O)[C@H](c1ccccc1Cl)N1CCc2sccc2C1.O=S(=O)(O)O [CLOPIDOGREL BISULFATE]
Result: Compound metabolized

Q: Any idea what its Bacterial Biotransformation is? The compound is CCc1cccc2c3c([nH]c12)C(CC)(CC(=O)O)OCC3 (stereo not drawn)
Result: Compound metabolized

Q: Any idea what its Bacterial Biotransformation is? The compound is COc1ccccc1OCCNCC(O)COc1cccc2[nH]c3ccccc3c12 (stereo not drawn)
Result: Compound metabolized

Q: Any idea what its Bacterial Biotransformation is? The compound is CC(CCc1ccccc1)NCC(O)c1ccc(O)c(C(N)=O)c1 (stereo not drawn)
Result: Compound NOT metabolized
